Tested on: HOP-62
Test: NCI tumour cell line growth inhibition, 48 h
The source made the active and inactive calls. Rule as the data show it: active = GI50 up to about 1.1 µM and inactive = higher.
Result category, one only: active, inactive

• O=C1CNc2cc(N3CCN(c4cccc(C(F)(F)F)c4)CC3)ccc2N1 = inactive
• CN1CCN(CCCCN2c3ccccc3Sc3cc(N=[N+]=[N-])ccc32)CC1 = inactive

Incoming: Record request — test call for "CCN(CC)c1ccc(/C=C(\C#N)c2nc(N)nc(N3N=C(C)CC3(C)C)n2)cc1"
Outgoing: inactive

Incoming: Returns: the outcome recorded for "O=C(CCN1CCOCC1)C(=Cc1ccccc1)C(=O)CCN1CCOCC1" in this assay.
Outgoing: inactive

Incoming: Fill in: this test's call for CCN(CC)CC(=O)N1CCc2c([nH]c3ccccc23)C1c1cccnc1 (stereo unspecified) is ___
Outgoing: inactive

Incoming: Returns: the outcome recorded for C=CCC1(OC(C)=O)C2OC(=O)C1(O)OCC2O (stereo unspecified) in this assay.
Outgoing: inactive

Incoming: Could you kindly confirm the outcome this assay logged for NC1CC2C3CCC2C1C3=O (stereo unspecified) ?
Outgoing: inactive

Incoming: # lookup: test call for CC(C)(C)c1ccc(S(=O)(=O)N2C(c3cccc(C4CC[C@@H](C(=O)O)N4S(=O)(=O)c4ccc(C(C)(C)C)cc4)c3)CC[C@H]2C(=O)O)cc1 (stereo partly specified)
Outgoing: inactive

Incoming: Assay result, entry CCCC(=O)OCC1OC2OC(C)(C)OC2C2OC(C)(C)OC12 (stereo unspecified) — outcome?
Outgoing: inactive

---

Test system: U-251
Assay: NCI tumour cell line growth inhibition, 48 h
Calls of active or inactive are those of the source. Rule as the data show it: active = GI50 up to about 1.1 µM and inactive = higher.
property.measured: GI50

Solved entries:
- O=C1C=CC(=O)c2c(O)c(N3CCN(c4ccccn4)CC3)cc(O)c21: 5.64 µM (inactive)
- CC1(C)CC[C@]2(C(=O)O)CC[C@]3(C)C(=CC[C@@H]4[C@@]5(C)CC[C@H](OC6OC(CO)C(O)C(O)C6OC6OC(CO)C(O)C(O)C6O)C(C)(C)[C@@H]5CC[C@]43C)[C@@H]2C1 (stereo partly specified): 2.38 µM (inactive)
- C=C(CCOC)CCC1CCCCC(=C)[C@H]1OC(C)=O (stereo partly specified): > 100 µM (inactive)
- CCOC(=O)C(Cc1cn(C(C)=O)c2ccccc12)P(=O)(OCC)OCC (stereo unspecified): > 100 µM (inactive)
- CCS(=O)(=O)Nc1ccc(Nc2c3ccccc3nc3ccccc23)c(OC)c1: 0.158 µM (active)
- CCNCCCCNCCCCNCCCCNCCCCNCC: > 100 µM (inactive)
- O=C(c1ccccc1)c1c2ccccn2c2cccc[n+]12: > 100 µM (inactive)
- Sc1nnc(Cc2ccc(Cl)cc2)[nH]1: 58.1 µM (inactive)
- CC1=CC[C@H](C[C@H](C#CCCCC2OCCO2)O[Si](C(C)C)(C(C)C)C(C)C)C(=O)CC1: > 100 µM (inactive)
- CC1(C)OC[C@@H](O)[C@H](C#N)CO1: > 100 µM (inactive)

Entry "Cc1cc(-c2nc3ccccc3s2)ccc1NC(=O)[C@H](C)N" — recorded GI50 = 15 µM (inactive)

Form field GI50, entry C=C1C(=O)C2(C)OC2(C)C1C(=O)O (stereo unspecified) : > 100 µM (inactive)

Entry under test: "NNC(=O)CC(=O)Nc1cccc(Cl)c1" . Its GI50 was > 100 µM (inactive)

Data point: CC12CCC(C(=O)OC1=O)C2(C)C (stereo unspecified) ; GI50 = > 100 µM (inactive)

Sample "C/C(=N\NC(N)=S)c1ccc2c(c1)Sc1ccccc1O2" ; GI50 observed: 2.37 µM (inactive)

Entry C=CCC1(OC(C)=O)C2OC(=O)C1(O)OCC2O (stereo unspecified) , GI50 reported as > 100 µM (inactive)

"N#Cc1c(-c2ccccc2)cc(-c2ccc(Cl)cc2)[nH]c1=S" has a reported GI50 of 21.3 µM (inactive)

For "CCOC(=O)C(=O)/C(=C/N1C(=O)CC(=O)NC1=S)C(=O)OCC" the compound record lists GI50 as > 100 µM (inactive)
